Test: small-molecule binders of probe aNOTCH3, primary screen, biochemical, small-molecule microarray, 635/667 nm fluorescence (AID 1120);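 note: probe is a biotin-tagged antibody raised against NOTCH3 rather than NOTCH3 protein; score merges spot fluorescence near 667 nm with spot signal to noise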
Conditions: higher = more signal
Record form. Attribute: composite z-score. Fill in for each entry.
Answer as a number with no unit attached.

Looking up `COCCOC(=O)N1C(=O)[C@@]2(c3cc(C#Cc4ccc(OC)cc4)ccc31)[C@H](C(=O)N1CCN(c3ncccn3)CC1)[C@H]1C(=O)O[C@H](c3ccccc3)[C@H](c3ccccc3)N1[C@@H]2c1ccc(OCCO)cc1` , I found its composite z-score recorded as 0.311

Lab note: `COCC(=C=CC[C@@H](O)c1ccccc1OCCO)CCO` gave composite z-score of 0.0596

According to the records, this molecule `CO[C@@H]1COC(=O)CC=C[C@@H](C)[C@@H]2C=C[C@@H](O)[C@@H](COC(=O)CC=C[C@H]1C)O2` displays composite z-score of 0.0864

Lab book: composite z-score of `CC[C@@H](c1ccccc1)n1c(=O)n2n(c1=O)[C@H]1[C@H](O)[C@@H]3O[C@@H]3C(=NOCC=C(C)CCC=C(C)C)[C@H]1CC2` noted as 0.192

###

Exercise: state measured composite z-score for each of the compounds provided.
Target: Dihydroorotate dehydrogenase (quinone), mitochondrial (Plasmodium falciparum (isolate 3D7))
Assay: PfDHODH enzyme inhibitors, primary screen, biochemical, C-terminal His tag, absorbance 600 nm (AID 1175);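 note: recombinant parasite enzyme with a five histidine tag at its C terminus; test concentration not given here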
Settings: DCIP absorbance 600 nm, higher = more signal, called active from +8 up or from −8 down
Active and inactive are the calls of the source.

Record summary for `O=C1C[C@@H](O)[C@@H](O)[C@@H]2[C@@H]3C(=O)N(c4ccc(F)cc4F)C(=O)[C@@H]3CC[C@@H]12` : reported composite z-score = 0.374 (inactive)

Form field composite z-score, entry `O=C(NN=C1C[C@@H](O)[C@@H](O)[C@@H]2[C@@H]3C(=O)N(c4ccc(F)cc4F)C(=O)[C@@H]3CC[C@@H]12)OCc1ccccc1` : -0.192 (inactive)

Lab note: `COc1ccc(O[C@@H]2[C@H](O)CO[C@H]2C=CC#Cc2ccccc2)cc1` gave composite z-score of 0.18 (inactive)

Consider CCN1C(=O)[C@H]2[C@H]3[C@H](O)[C@H](O)CC(=NOC(C)CN4CCCCc5nc(C)c(C)cc54)[C@@H]3CC[C@H]2C1=O (stereo partly specified) . Its measured composite z-score is 0.301 (inactive)

composite z-score measured on `COC(=O)c1c(CC[C@@H](CO)NC(=O)N[C@H](Cc2ccccc2)Cn2cc(-c3ccccc3N)nn2)oc(C(C)=O)c1C(=O)OC` = -0.433 (inactive)

For `CCCNC(=O)OC[C@H]1O[C@H](CCON=C[C@@H](OC)[C@H](C)C=CCC(=O)OC)C=C[C@@H]1Oc1ccc(OC)cc1` the compound record lists composite z-score as 0.329 (inactive)

Quick note, composite z-score for `CO[C@@H]1COC(=O)CC=C[C@@H](C)[C@@H]2C=C[C@H](O)[C@@H](COC(=O)[C@H](C)NC(=O)CC=C[C@H]1C)O2` landed at -1.15 (inactive)

Lab note: measured composite z-score of `CCCNC(=O)OC[C@H]1O[C@H](CCON=CC[C@@H]2C=C[C@H](OC(C)=O)[C@@H](COC(C)=O)O2)C=C[C@@H]1Oc1ccc(OC)cc1` was -0.584 (inactive)

Documented composite z-score of `C#C[C@@H](CC)O[Si](C#Cc1ccc(Oc2ccccc2)cc1)(C(C)C)C(C)C` : -0.661 (inactive)

// field: composite z-score; key: `Cn1c(=O)n2n(c1=O)[C@H]1[C@H](O)[C@@H]3O[C@@H]3C(=NOC[C@@H](O)COCc3ccco3)[C@H]1CC2` ; value = 0.0599 (inactive)

Consider `COC(=O)C1=C(C)N(Cc2ccccc2)[C@]23O[C@](C(=O)OC)(C(=O)N2[C@@H]1c1ccccc1)[C@H]1CCOC(=O)[C@H]13` . Its measured composite z-score is 1.01 (inactive)

Value of composite z-score reported for the compound `Cc1ccc(S[C@]2(C(=O)NCC(F)(F)F)CC(=O)N(Cc3ccccc3Cl)[C@@H]2c2ccc(CO)cc2I)cc1` is -0.148 (inactive)

Looking up `CC(C)=NOCc1cccc(-c2cc(-c3ccccc3)no2)c1` , I see its composite z-score listed as -0.502 (inactive)

Item: COc1ccc(-c2ccc3c(n2)CCCN3CC(O)CN2CCCc3nc(C)c(C)cc32)cc1 (stereo unspecified) | composite z-score: 1.18 (inactive)

Entry Cc1cc2c(nc1C)CCCN2CC(C)ON=C1[C@H]2CCn3c(=O)n(-c4ccccc4)c(=O)n3[C@H]2[C@H](O)[C@@H]2O[C@H]12 (stereo partly specified) , composite z-score reported as -0.153 (inactive)

Recorded composite z-score (compound `Cc1ccc(F)cc1S(=O)(=O)N[C@@H]1CCN(Cc2ccc(CC(C)C)cc2)C1` ): -0.687 (inactive)

###

Assay: MM1S cell viability effects, profiling panel, calcein-AM fluorescence, 48 h, basal (AID 1165);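 note: viability of MM1S multiple myeloma cells under basal unstimulated conditions; test concentration not given here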
Settings: higher = more signal
Can you tell me z-score for the items I'm about to list?
In your answer, state the number alone without any accompanying words.

According to the records, this molecule `CO[C@@H]1COC(=O)[C@@H]2CCCN2C(=O)[C@@H](C)COC(=O)[C@H](COCc2ccccc2)NC(=O)CC=C[C@H]1C` displays z-score of -0.329

Kindly note the recorded z-score for `CO[C@H]1COC(=O)CC=C[C@H](C)[C@@H](NS(=O)(=O)c2ccc(C)cc2)COC(=O)CC=C[C@@H]1C` , which is -0.204

The molecule CCN1C(=O)[C@H]2[C@H]3[C@H](O)[C@H](O)CC(=NOC(C)CN4CCCCc5nc(C)c(C)cc54)[C@@H]3CC[C@H]2C1=O (some centres not stated) showed z-score equal to 0.0768

z-score in this record for `COc1ccc(O[C@H]2C=C[C@@H](c3ccccc3)O[C@@H]2COC(=O)CCC(C)=NO[C@@H](C)c2cc(-c3c(C)cc(C)cc3C)no2)cc1` : 0.0731

Record `C[C@@H](c1ccccc1)N1C(=O)[C@H]2[C@H]3[C@H](O)[C@H](O)CC(=NOC[C@@H](O)COCc4ccco4)[C@@H]3CC[C@H]2C1=O` , field z-score: 0.0485

Kindly note the recorded z-score for `CC(C)=NOCc1cccc(-c2cc(-c3ccccc3)no2)c1` , which is -1.06

Entry `COCCCNC(=O)[C@@]1(CCS(=O)(=O)c2ccccc2)N=C(c2ccc(OCCCO)cc2)O[C@H]1c1ccccc1` , z-score reported as -0.345

###

Assay: Plasmodium falciparum growth inhibition, primary screen, strain 3D7, DAPI fluorescence, 100 nL (AID 1184);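 note: parasites grown inside human red blood cells in medium with human serum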
Conditions: P. falciparum 3D7 growth, 3 d, higher = more signal
Is z-score at least -0.8? Then label 1. If not, label 0.

Lookup: // inclusive: z-score at least -0.8? input: `CC(=O)OC[C@H]1O[C@@H](ON=C(C)CCN2CCc3nc(-c4ccccc4)c(-c4ccccc4)cc3C2)[C@H](OC(C)=O)[C@@H](OC(C)=O)[C@@H]1OC(C)=O`
Found: label 0

Lookup: Determine whether measured z-score meets or exceeds -0.8 for `O=C1O[C@@H](c2ccccc2)[C@@H](c2ccccc2)N2[C@@H](c3ccc(OCCO)cc3)[C@]3(C(=O)Nc4ccc(C#CCCO)cc43)[C@@H](C(=O)N3CCCCCCC3)[C@H]12`
Found: label 0

Lookup: Check if z-score >= -0.8 (inclusive). Item: `O=C(CS)NCCCCCNC(=O)[C@@H]1C[C@@H]2C(=O)N[C@@H](Cc3ccccc3)C(=O)N2[C@@H]1c1ccc(O)cc1`
Found: label 1

Lookup: Decide: z-score of CCOC(=O)[C@H](Cc1ccccc1)NC(=O)CCC1CC(OC(=O)NCc2ccc3c(c2)OCO3)CC2(CCCC(COC(=O)NCC3CCCCC3)O2)O1 (some centres undefined) >= -0.8?
Found: label 0

Lookup: Could you please find out whether `CC(C)=C1C(=O)C(c2ccccc2)=C2CN3C(=O)N(CCc4ccccc4)C(=O)[C@]3(Cc3ccc(F)cc3)[C@H]21` has z-score that meets -0.8 or exceeds it?
Found: label 1

Lookup: Could you please find out whether `CC(C)[C@H](NC(=O)OC(C)(C)C)[C@@H](O)CC(=O)OC(C)(C)C` has z-score that meets -0.8 or exceeds it?
Found: label 0

Lookup: Please indicate if the recorded z-score for `O=C1[C@H]2[C@H]3[C@H](O)[C@H](O)CC(=NOCc4ccccc4)[C@H]3CC[C@H]2C(=O)N1C[C@@H]1CCCO1` meets or exceeds -0.8.
Found: label 1

Lookup: Answer whether z-score of CCOC(=O)[C@H](Cc1ccccc1)NC(=O)CCC1CC(OC(=O)NCc2ccc3c(c2)OCO3)CC2(CCCC(COC(=O)NCc3ccccc3)O2)O1 (some centres undefined) is greater than or equal to -0.8.
Found: label 0

Lookup: Is z-score for `C[C@@H](c1ccccc1)N1C(=O)[C@H]2[C@H]3[C@H](O)[C@H](O)CC(=NOC[C@@H](O)COCc4ccco4)[C@@H]3CC[C@H]2C1=O` at or above -0.8?
Found: label 0

Lookup: // inclusive: z-score at least -0.8? input: `CCOC(=O)NN=C1C[C@@H](O)[C@@H](O)[C@@H]2[C@@H]3C(=O)N(C[C@@H]4CCCO4)C(=O)[C@@H]3CC[C@@H]12`
Found: label 1

Lookup: Is the recorded value of z-score equal to or greater than -0.8 for this compound? `[N-]=[N+]=Nc1ccccc1C[C@@]1(C(N)=O)N=C(c2ccc(OCCCO)cc2)O[C@@H]1c1ccccc1`
Found: label 0

Lookup: API: above_or_equal(metric=z-score, cutoff=-0.8) for item `COC(=O)[C@@]1(Cc2ccc(OC)cc2)[C@H]2c3cc(C(=O)N4CCCC4)n(Cc4cc(F)c(F)c(F)c4)c3C[C@H]2CN1C(=O)c1ccccc1`
Found: label 0

Lookup: Could you verify whether the entry `CC(C)NC(=O)[C@@]1(c2ccc([N+](=O)[O-])cc2)CC(=O)N(CC23CC4CC(CC(C4)C2)C3)[C@@H]1c1ccc(CO)cc1I` shows z-score of no less than -0.8?
Found: label 1

Lookup: Determine whether measured z-score meets or exceeds -0.8 for `CO[C@@H]1COC(=O)[C@H](C)NC(=O)[C@@H](C)COC(=O)CCC[C@H]1C`
Found: label 1
